Source listed as BigSolDB 2.1.

Conditions: in n-pentanol, 298.15 K
ENDPOINT: solubility (mole fraction)

CHEMICAL_STRING	REPORTED
O=C(O)c1cc([N+](=O)[O-])cc([N+](=O)[O-])c1	0.0273

====

Settings: in n-propyl acetate, 313.15 K

CHEMICAL_STRING	solubility (mole fraction)
O=C(O)c1cc([N+](=O)[O-])cc([N+](=O)[O-])c1	0.0494

====

Conditions: in ethanol, 313.15 K
ENDPOINT: solubility (mole fraction)

CHEMICAL_STRING	REPORTED
O=C(O)c1cc([N+](=O)[O-])cc([N+](=O)[O-])c1	0.0593
